Experiment: Tmax in human plasma
Assay type: ADME, organism-based
Measured Quantity: Tmax (h)
Output spec: scalar in h, unitless text.

Enquiry: Please list Tmax recorded for the molecule "COc1c(N2CC[C@@H](C3(N)CC3)C2)ccc2c(=O)c(C(=O)O)cn([C@@H]3C[C@@H]3F)c12"
Return: 1.25

* * *

Assay: Clearance in human plasma after 4 days
Measured Quantity: clearance (mL/min)
Output spec: scalar in mL/min, unitless text.

Enquiry: Please list clearance recorded for the compound "COc1c(N2CC[C@@H](C3(N)CC3)C2)ccc2c(=O)c(C(=O)O)cn([C@@H]3C[C@@H]3F)c12"
Return: 166

* * *

Assay: Protein binding in human plasma
Assay type: ADME, organism-based
Conditions: read-out: PPB (converted)
Measured Quantity: fraction unbound
Give the value as a plain number.

Enquiry: Please list fraction unbound recorded for the compound "COc1c(N2CC[C@@H](C3(N)CC3)C2)ccc2c(=O)c(C(=O)O)cn([C@@H]3C[C@@H]3F)c12"
Return: 0.35

src = ChEMBL document CHEMBL1143829
